Test: Stability in liver microsomes, rat
With a cut-off of 0.07 µM, any Trep Concentration 0 min strictly below it is called 1; any Trep Concentration 0 min meeting it or above is called -1.

{"Molecule": "CCCCCC(CCC1C(O)CC2Cc3c(cccc3OCC(=O)O)CC21)OC(=O)CCC(=O)O (centres unmarked)", "Classification": -1}
{"Molecule": "CCCCC[C@@H](CC[C@@H]1[C@H]2Cc3cccc(OCC(=O)O)c3C[C@H]2C[C@H]1O)OC(=O)[C@@H](N)C(C)C", "Classification": 1}
{"Molecule": "CCCCCC(CCC1C(O)CC2Cc3c(cccc3OCC(=O)O)CC21)OC(=O)c1ccccc1O (centres unmarked)", "Classification": 1}
{"Molecule": "CCCCCC(CCC1C(O)CC2Cc3c(cccc3OCC(=O)O)CC21)OC(=O)C1CCCN1 (centres unmarked)", "Classification": -1}
{"Molecule": "CCCCCC(CCC1C(O)CC2Cc3c(cccc3OCC(=O)O)CC21)OC(=O)OCC (centres unmarked)", "Classification": -1}
{"Molecule": "CCCCCC(O)CCC1C(OC)CC2Cc3c(cccc3OCC(=O)O)CC21 (centres unmarked)", "Classification": 1}
{"Molecule": "CCCCCC(CCC1C(O)CC2Cc3c(cccc3OCC(=O)O)CC21)OCC (centres unmarked)", "Classification": 1}
{"Molecule": "CCCCCC(CCC1C(O)CC2Cc3c(cccc3OCC(=O)O)CC21)OC(=O)c1ccc(C(F)(F)F)cc1 (centres unmarked)", "Classification": -1}

----------
Experiment: Stability in cryopreserved hepatocytes, rat
Details: rat
Protocol: Mixed-gender human cryopreserved hepatocytes, male Sprague-Dawley rat cryopreserved hepatocytes, and male Beagle dog cryopreserved hepatocytes were purchased from XenoTech. […] An aliquot of the supernatant was then diluted with water and analyzed by LC-MS/MS against calibration standards prepared in a matched matrix. […] All test article samples were analyzed for the dosed prodrugs as well as the drug, treprostinil. […]
Measured Quantity: AUC (µmol·min/L)

{"Compound": "CCCCC[C@H]1CC[C@@H]2[C@H]3Cc4cccc(OCC(=O)O)c4C[C@H]3C[C@H]2OC(=O)O1 [XXIV]", "Reading Unit": "µmol·min/L", "Val": 58.02}
{"Compound": "CCCCCC(CCC1C(O)CC2Cc3c(cccc3OCC(=O)O)CC21)OCCN1CCOCC1 (stereo not shown) [L]", "Reading Unit": "µmol·min/L", "Val": 0.39}
{"Compound": "CCCCCC(CCC1C(O)CC2Cc3c(cccc3OCC(=O)O)CC21)OC(=O)COc1ccccc1 (stereo not shown) [LXV]", "Reading Unit": "µmol·min/L", "Val": 29.24}
{"Compound": "CCCCCC(CCC1C(O)CC2Cc3c(cccc3OCC(=O)O)CC21)OC(=O)c1ccc(O)cc1 (stereo not shown) [LXVIII]", "Reading Unit": "µmol·min/L", "Val": 0.56}

----------
Test: Stability in cryopreserved hepatocytes, dog

{"Molecule": "CCCCCC(CCC1C(O)CC2Cc3c(cccc3OCC(=O)O)CC21)OC(=O)c1ccccc1O (stereo not shown)", "Trep Concentration (μM) 120 min": "0.00663 µM"}
{"Molecule": "CCCCCC(CCC1C(OC(=O)CC)CC2Cc3c(cccc3OCC(=O)O)CC21)OC(=O)CC (stereo not shown) [Prodrug LXX, treprostinil dipropionate]", "Trep Concentration (μM) 120 min": "0.445 µM"}
{"Molecule": "CCCCCC(CCC1C(O)CC2Cc3c(cccc3OCC(=O)O)CC21)OC(=O)COc1ccccc1 (stereo not shown)", "Trep Concentration (μM) 120 min": "0.373 µM"}
{"Molecule": "CCCCCC(CCC1C(O)CC2Cc3c(cccc3OCC(=O)O)CC21)OC(=O)CCN (stereo not shown)", "Trep Concentration (μM) 120 min": "0.248 µM"}
